experimentalProtocol: Spermicidal activity in liquefied human semen assessed as drug level required to kill 100% sperm in 20 seconds
Type: functional
measuredMetric: MEC
Note: state the figure and append the unit.

// worked examples, MEC included
>  <molecule>
CN(C)CCSC(=S)N(C)CCC(Oc1ccc(C(F)(F)F)cc1)c1ccccc1 (stereo not drawn)

>  <MEC>
1%

$$$$
>  <molecule>
CCN(CC)CCSC(=S)N(C)CCC(Oc1ccc(C(F)(F)F)cc1)c1ccccc1 (stereo not drawn)

>  <MEC>
1%

$$$$
>  <molecule>
CN(CCC(Oc1ccc(C(F)(F)F)cc1)c1ccccc1)C(=S)SCC(O)CN1CCCC1 (stereo not drawn)

>  <MEC>
0.5%

$$$$
>  <molecule>
CN(CCC(Oc1ccc(C(F)(F)F)cc1)c1ccccc1)C(=S)SCCN1CCCCC1 (stereo not drawn)

>  <MEC>
1%

$$$$
>  <molecule>
CN(CCC(Oc1ccc(C(F)(F)F)cc1)c1ccccc1)C(=S)SCc1ccccc1 (stereo not drawn)

>  <MEC>
1%

$$$$

input: Param item = CN1CCN(C(=S)SCC(O)CN(C)CCC(Oc2ccc(C(F)(F)F)cc2)c2ccccc2)CC1 (stereo not drawn) ; retrieve measured MEC.
output: 1%

input: Param item = CCN(CC)CC(O)CSC(=S)N(C)CCC(Oc1ccc(C(F)(F)F)cc1)c1ccccc1 (stereo not drawn) ; retrieve measured MEC.
output: 0.5%

input: Param item = CN(CCC(Oc1ccc(C(F)(F)F)cc1)c1ccccc1)C(=S)SCCN1CCCC1 (stereo not drawn) ; retrieve measured MEC.
output: 0.05%
